Here, each record is paired with measured median log2 fold change data.
# Target: GABARAPL2, P60520
# Sequence (P60520 whole entry, the tested form may be a part): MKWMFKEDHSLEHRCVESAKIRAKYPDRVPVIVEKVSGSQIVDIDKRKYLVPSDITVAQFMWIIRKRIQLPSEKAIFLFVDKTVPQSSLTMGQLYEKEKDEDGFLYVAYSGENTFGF
# Test Protocol: median log2 fold change of GCK-ALFA target abundance (FLAG IP / Myc IP barcode read proportion) (log2 ratio); each designed protein is fused to an ALFA-tag nanobody in HEK293 cells to bring the named protein to FLAG-tagged glucokinase (GCK); Myc marks an untargeted standard; higher = target protein stabilised (more abundant)
# Measurement Setup: target protein: 3xFLAG-MCP-GCK-ALFA reporter; HEK293 landing pad (RPLP)

Known results for binders:
Binder	Result
GBRAPL2_53_7362 (protein) MWLVEVEHPDKEKLLKAAKEIFKIAKENGLKVTVKFVKEDGTVEEKTLNAEEALKYVEEKVKEGDVILEIELPDSLEEAKEKIIDAAAKHGAVVSVEELE	0.16
GBRAPL2_63_7395 (protein) SAAARVLRALLEHAIVDLETAERIEEALATEKSAEALRETLVAALLDMIPELTEEEARELAAALEALARRSPELLREALRALQTLSLEEARARLAALLAA	0.00583
GBRAPL2_151_7304 (protein) GWKEEAIKALEKAAKAAEEAAAALPESQELERTELELLAGGFEADAILIEETDDEEEIKRLVKEAAERAEDAAKLAKKLGLEEQAKKLEKIAKELKKLAK	0.0343

Q: Given GBRAPL2_151_7323 (protein) SELEKLLKEAKKLLKKLEKLVKEAAKKDPKYETELETLVGGAEADLILAEEAKNDEEKREHLKRAAELIADAAELIAKITGSEEAKKLAEEAKELLKKLE , state its recorded median log2 fold change.
A: 0.39
